B1: Pistol ribozyme (parent)
chain: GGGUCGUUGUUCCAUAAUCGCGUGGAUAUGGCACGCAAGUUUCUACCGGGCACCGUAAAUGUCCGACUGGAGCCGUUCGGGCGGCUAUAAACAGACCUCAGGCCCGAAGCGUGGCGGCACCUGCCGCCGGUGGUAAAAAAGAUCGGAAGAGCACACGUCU

# Variants of: B1
# Test name: aptazyme ON/OFF ratio, guanine; higher = stronger switching; co-transcriptional cleavage with and without guanine
Result type: aptazyme ON/OFF ratio
Numbers only.

{"Variant label": "U8G G9U U11C C12G", "Reported value": 1.12}
{"Variant label": "U7G U8G G9A U10C U11G C12U C13U", "Reported value": 1.38}
{"Variant label": "G9C U10A U11G C12A C13A", "Reported value": 1.06}
{"Variant label": "U7C U8C G9C U10C U11A C12A C13G", "Reported value": 1.06}
{"Variant label": "U8C G9C U10C U11G C12U C13A", "Reported value": 1.05}

List reported aptazyme ON/OFF ratio for each of these variants:
1. U7C U8C G9U U10A U11G C12U
2. U8G G9A U10A C12G C13A
3. U8A G9A U11C C13U

Response given:
1: 1.11; 2: 1.22; 3: 1.04

List reported aptazyme ON/OFF ratio for each of these variants:
1. U7G U8C G9U U10C U11C C12G C13A
2. U7G U8G G9C U10A U11C C12U C13A
3. U8A G9A C13G
4. U7G G9A U10G U11A C12G C13A
5. U7A U8C G9A U10A C12A
6. U8G G9U U11G C13U
7. U7C U8G G9U U11G C12G
8. U7A U8G G9A U11G C12G

Response given:
[1.45, 1.06, 1.12, 1.12, 1.26, 1.05, 1.35, 1.32]

List reported aptazyme ON/OFF ratio for each of these variants:
1. U7A U8C G9A C12U C13A
2. U7C U8A U11A C12G
3. U8A U10A U11G C12G C13A

Response given:
1. 1.07
2. 1.09
3. 1.06
